test system: A549 NSCLC; assay: NCI tumour cell line growth inhibition, 48 h
Where a SMILES comes first, the peptide text is derived from it. Bridges are numbered along the chain shown (N, C = ends). [ ]: non-standard residue; d: D form. aThr = C[C@H](O)[C@H](N)C(=O)O
Quantity Measured: TGI

Compound	Experimental System	TGI
c1ccc(COC[C@H]2O[C@@H](c3ccccc3)C[C@@H](OCc3ccccc3)C2OCc2ccccc2)cc1 (stereo not given in full)	A549 NSCLC	> 10 µM
CN1C(=O)CC(=O)N1/C(=C/c1ccccc1)c1ccccc1	A549 NSCLC	> 100 µM

Query TGI on A549 NSCLC for CCCCCCCCOCC(COC(=O)CCCCCCC)OC(=O)CCCCCCC (stereo not given) > 100 µM

What do we get for CC(C)C[C@@H]1NC(=O)[C@@H]2CCCN2C(=O)[C@@H]2CCCN2C(=O)[C@H](CC(C)C)NC(=O)[C@H](CO)NC(=O)[C@H](CCCCN)NC(=O)[C@H]([C@H](C)O)NC(=O)[C@@H]2CSSC[C@@H](NC1=O)C(=O)N[C@@H](Cc1ccccc1)C(=O)N1CCC[C@H]1C(=O)N[C@@H](CC(=O)O)C(=O)NCC(=O)N[C@@H](CCCN=C(N)N)C(=O)N2 (cyclo(C[aThr]KSLPPL[dC]FPDGR); disulfide 1-9) ? > 50 µM

What do we get for COc1ccc(-c2cc(/C=C/C(=O)c3ccc(N)cc3)[nH]n2)cc1OC ? 10.1 µM

What do we get for [B]C(=O)NC(CC(C)C)C(=O)NCC(=O)NC1c2ccsc2C(=O)C1O (stereo not given) (tested in a mixture with another compound) ? > 100 µM

What do we get for COC(=O)c1c(C)cccc1/C=C1\Cc2ccc(C)c(C)c2C1=O ? > 100 µM

What do we get for CSc1nncc(-c2cc3c(c(SC)n2)CCCC3)n1 ? > 100 µM

What do we get for C=CCON(C(=O)OC(C)(C)C)C(C)(C)C ? > 100 µM

What do we get for CC(=O)Oc1ccc(C2=Cc3ccc(OC(C)=O)cc3OC2C)cc1 (stereo not given) ? > 100 µM

* * *

The entries below are paired with their reported TGI.
system: SK-OV-3 ovarian; test: NCI tumour cell line growth inhibition, 48 h

>>> df
                                   compound  recorded_measurement
0               c1cc(-c2ccc(-c3ccsc3)s2)cs1              > 100 µM
1  C#Cc1ccc(-n2c(/C=C/c3ccc(O)cc3)nc3ncccc3c2=O)cc1               29.1 µM
2  O=C(NCCN(CCNC(=O)c1cccc(O)c1O)CCNC(=O)c1cccc(O)c1O)c1cccc(O)c1O              > 100 µM
3  COC(=O)C1=C(C(=O)OC)C2(c3ccccc3)OC1(c1ccccc1)c1cc3ccccc3cc12               24.4 µM
4  COc1ccc(OC)c2sc(N3C(=O)/C(=C/c4cccc(Oc5ccccc5)c4)N=C3c3ccccc3)nc12              > 100 µM
5          CCOC(=O)/C(=C\c1cccc(C)c1)C(C)=O              > 100 µM
6         C=CCC(CCC(C)=O)(C(=O)OCC)C(=O)OCC              > 100 µM
7  CCC(c1ccccc1)c1noc(CCN(CC)CC)n1 (stereo not given)              > 100 µM

For the compound shown here, Cc1ccccc1C(CCCO)C(=O)O (stereo not given) , give the reported TGI. > 100 µM

What do we get for Cc1nc2ccccc2c(=O)n1/N=C(\N=Nc1ccccc1Cl)c1ccccc1Cl ? 64.4 µM
